Provenance of the data: patent US8598206B2

Biological target: human urinary kallikrein (Homo sapiens (Human))
Sequence (P06870 25-262): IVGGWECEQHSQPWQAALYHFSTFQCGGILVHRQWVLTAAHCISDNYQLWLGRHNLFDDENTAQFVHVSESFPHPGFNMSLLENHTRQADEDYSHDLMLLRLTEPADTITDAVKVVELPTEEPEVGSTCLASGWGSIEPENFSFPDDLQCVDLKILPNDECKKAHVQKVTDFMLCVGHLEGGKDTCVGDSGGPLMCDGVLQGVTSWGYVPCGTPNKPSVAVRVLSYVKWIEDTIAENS
Measure name: Ki

Worked cases, Ki given:
>  <Molecule>
CC(=O)N1CCC(CCC[C@@H](NS(=O)(=O)Cc2ccccc2)C(=O)N[C@@H](CCC2CCNCC2)C(=O)NCc2ccc(C(=N)N)cc2)CC1

>  <Tgt>
human urinary kallikrein (Homo sapiens (Human))

>  <Meas value>
> 500 µM

$$$$
>  <Molecule>
CC(C)C(=O)N1CCC(CC[C@@H](NS(=O)(=O)Cc2ccccc2)C(=O)N[C@@H](CCC2CCNCC2)C(=O)NCc2ccc(C(=N)N)cc2)CC1

>  <Tgt>
human urinary kallikrein (Homo sapiens (Human))

>  <Meas value>
> 200 µM

$$$$
>  <Molecule>
COCC(=O)N1CCC(CC[C@@H](NS(=O)(=O)Cc2ccccc2)C(=O)N[C@@H](CCC2CCNCC2)C(=O)NCc2ccc(C(=N)N)cc2)CC1

>  <Tgt>
human urinary kallikrein (Homo sapiens (Human))

>  <Meas value>
> 100 µM

$$$$

# ---- query molecule ----
Ki of N=C(N)c1ccc(CNC(=O)[C@H](CCC2CCNCC2)NC(=O)[C@@H](CCCc2cc[n+]([O-])cc2)NS(=O)(=O)Cc2ccccc2)cc1 [drawing 117] , assay on human urinary kallikrein (Homo sapiens (Human)), is > 200 µM

###

List of Ki values.
Molecular target: human activated C1s complement component (Homo sapiens (Human), UniProt P09871)
Sequence (P09871 438-688): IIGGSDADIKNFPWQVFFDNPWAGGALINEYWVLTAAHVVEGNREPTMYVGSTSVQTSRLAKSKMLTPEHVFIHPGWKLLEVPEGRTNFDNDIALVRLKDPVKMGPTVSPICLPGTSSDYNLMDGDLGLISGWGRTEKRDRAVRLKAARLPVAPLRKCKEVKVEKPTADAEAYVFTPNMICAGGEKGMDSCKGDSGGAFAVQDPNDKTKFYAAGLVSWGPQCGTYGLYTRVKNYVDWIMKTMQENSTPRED
Sequence (P09871 16-437 partner): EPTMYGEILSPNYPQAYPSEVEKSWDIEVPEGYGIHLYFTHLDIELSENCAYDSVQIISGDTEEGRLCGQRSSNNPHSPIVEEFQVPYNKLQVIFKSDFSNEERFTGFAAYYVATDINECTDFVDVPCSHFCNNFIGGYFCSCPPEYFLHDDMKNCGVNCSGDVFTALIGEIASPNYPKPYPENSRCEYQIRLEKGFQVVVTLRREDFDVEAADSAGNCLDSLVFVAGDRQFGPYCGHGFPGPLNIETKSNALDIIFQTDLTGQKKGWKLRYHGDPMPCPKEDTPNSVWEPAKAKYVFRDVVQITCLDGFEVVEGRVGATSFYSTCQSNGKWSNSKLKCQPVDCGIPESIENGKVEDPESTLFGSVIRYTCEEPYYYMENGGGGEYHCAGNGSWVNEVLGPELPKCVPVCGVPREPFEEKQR
Test: Inhibition of human C1s
Conditions: S2314 substrate; read-out: h C1s Ki

Worked cases, Ki given:
>  <Smiles string>
COCC(=O)N1CCC(CC[C@@H](NS(=O)(=O)Cc2ccccc2)C(=O)N[C@@H](CCC2CCNCC2)C(=O)NCc2ccc(C(=N)N)cc2)CC1

>  <Tgt>
human activated C1s complement component (Homo sapiens (Human), UniProt P09871)

>  <Ki>
20 µM

$$$$
>  <Smiles string>
CNC(=O)N1CCC(CC[C@@H](NS(=O)(=O)Cc2ccccc2)C(=O)N[C@@H](CCC2CCNCC2)C(=O)NCc2ccc(C(=N)N)cc2)CC1

>  <Tgt>
human activated C1s complement component (Homo sapiens (Human), UniProt P09871)

>  <Ki>
> 20 µM

$$$$
>  <Smiles string>
CCCC(=O)N1CCC(CC[C@@H](NS(=O)(=O)Cc2ccccc2)C(=O)N[C@@H](CCC2CCNCC2)C(=O)NCc2ccc(C(=N)N)cc2)CC1

>  <Tgt>
human activated C1s complement component (Homo sapiens (Human), UniProt P09871)

>  <Ki>
> 10 µM

$$$$
>  <Smiles string>
CN(C)C(=O)N1CCC(CC[C@@H](NS(=O)(=O)Cc2ccccc2)C(=O)N[C@@H](CCC2CCNCC2)C(=O)NCc2ccc(C(=N)N)cc2)CC1

>  <Tgt>
human activated C1s complement component (Homo sapiens (Human), UniProt P09871)

>  <Ki>
13 µM

$$$$

CCC(=O)N1CCC(CC[C@@H](NS(=O)(=O)Cc2ccccc2)C(=O)N[C@@H](CCC2CCNCC2)C(=O)NCc2ccc(C(=N)N)cc2)CC1 yielded Ki of > 25 µM

N=C(N)c1ccc(CNC(=O)[C@H](CCC2CCNCC2)NC(=O)[C@@H](CCCn2cnnn2)NS(=O)(=O)Cc2ccccc2)cc1 yielded Ki of > 10 µM

###

Molecular target: plasmin (Homo sapiens (Human), UniProt P00747)
Sequence (P00747 581-810): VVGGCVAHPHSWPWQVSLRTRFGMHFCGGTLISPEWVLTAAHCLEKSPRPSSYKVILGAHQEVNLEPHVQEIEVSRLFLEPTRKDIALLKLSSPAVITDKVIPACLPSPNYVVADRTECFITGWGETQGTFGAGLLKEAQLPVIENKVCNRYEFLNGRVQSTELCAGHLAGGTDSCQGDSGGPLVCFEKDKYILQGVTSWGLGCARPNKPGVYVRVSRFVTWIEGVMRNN
Sequence (P00747 97-580 partner): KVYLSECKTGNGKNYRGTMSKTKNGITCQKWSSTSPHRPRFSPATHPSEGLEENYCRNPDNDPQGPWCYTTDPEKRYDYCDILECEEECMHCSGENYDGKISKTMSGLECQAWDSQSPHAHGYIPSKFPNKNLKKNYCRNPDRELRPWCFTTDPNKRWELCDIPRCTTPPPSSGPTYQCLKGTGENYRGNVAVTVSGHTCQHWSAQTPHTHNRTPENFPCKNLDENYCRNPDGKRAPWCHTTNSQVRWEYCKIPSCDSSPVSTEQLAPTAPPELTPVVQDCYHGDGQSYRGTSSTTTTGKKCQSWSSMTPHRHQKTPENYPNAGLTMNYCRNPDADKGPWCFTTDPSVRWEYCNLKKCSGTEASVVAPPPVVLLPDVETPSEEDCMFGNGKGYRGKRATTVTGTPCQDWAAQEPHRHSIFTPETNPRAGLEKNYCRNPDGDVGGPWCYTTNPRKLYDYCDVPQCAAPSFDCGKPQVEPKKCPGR
Assay: Determination of inhibition constants for human plasmin (chromogenic substrate)
Type: biochemical
Details: 25° C., Chromozym PL substrate; read-out: h plasmin Ki
List of Ki values.
Please reply with the bare figure in nM and do not write the unit itself.

Worked cases, Ki given:
>  <Compound>
CNC(=O)N1CCC(CC[C@@H](NS(=O)(=O)Cc2ccccc2)C(=O)N[C@@H](CCC2CCNCC2)C(=O)NCc2ccc(C(=N)N)cc2)CC1

>  <Meas value>
1

$$$$
>  <Compound>
N=C(N)c1ccc(CNC(=O)[C@H](CCC2CCNCC2)NC(=O)[C@@H](CCCc2cc[n+]([O-])cc2)NS(=O)(=O)Cc2ccccc2)cc1 [drawing 117]

>  <Meas value>
1

$$$$

CN(C)C(=O)N1CCC(CC[C@@H](NS(=O)(=O)Cc2ccccc2)C(=O)N[C@@H](CCC2CCNCC2)C(=O)NCc2ccc(C(=N)N)cc2)CC1 yielded Ki of 0.8

###

Molecular target: human Factor Xa (Homo sapiens (Human), UniProt P00742)
Sequence (P00742 235-488): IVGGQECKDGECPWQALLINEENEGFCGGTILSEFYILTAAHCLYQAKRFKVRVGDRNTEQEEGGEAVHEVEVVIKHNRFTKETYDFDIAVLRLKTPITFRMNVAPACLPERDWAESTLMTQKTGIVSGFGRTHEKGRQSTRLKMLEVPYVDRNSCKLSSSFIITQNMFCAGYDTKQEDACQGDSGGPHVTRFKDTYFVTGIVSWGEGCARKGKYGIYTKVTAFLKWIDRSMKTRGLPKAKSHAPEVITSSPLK
Sequence (P00742 41-179 partner): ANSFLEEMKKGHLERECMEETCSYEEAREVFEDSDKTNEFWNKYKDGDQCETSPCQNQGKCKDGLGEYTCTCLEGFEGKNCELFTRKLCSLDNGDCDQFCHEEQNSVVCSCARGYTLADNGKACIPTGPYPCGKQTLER
Measure name: pKi
pKi (log units): -log10 of the concentration in mol/L.

Worked cases, pKi given:
>  <Smiles string>
CC(C)C(=O)N1CCC(CC[C@@H](NS(=O)(=O)Cc2ccccc2)C(=O)N[C@@H](CCC2CCNCC2)C(=O)NCc2ccc(C(=N)N)cc2)CC1

>  <pKi>
5.49

$$$$
>  <Smiles string>
N=C(N)c1ccc(CNC(=O)[C@H](CCC2CCNCC2)NC(=O)[C@@H](CCCC2CCNCC2)NS(=O)(=O)Cc2ccccc2)cc1

>  <pKi>
6.52

$$$$

pKi of COC(=O)N1CCC(CC[C@@H](NS(=O)(=O)Cc2ccccc2)C(=O)N[C@@H](CCC2CCNCC2)C(=O)NCc2ccc(C(=N)N)cc2)CC1 , assay on human Factor Xa (Homo sapiens (Human), UniProt P00742), is 5.70

pKi of N=C(N)c1ccc(CNC(=O)[C@H](CCC2CCNCC2)NC(=O)[C@@H](CCCn2cnnn2)NS(=O)(=O)Cc2ccccc2)cc1 , assay on human Factor Xa (Homo sapiens (Human), UniProt P00742), is 5.62

pKi of N=C(N)c1ccc(CNC(=O)[C@H](CCC2CCNCC2)NC(=O)[C@@H](CCCc2ccccc2)NS(=O)(=O)Cc2ccccc2)cc1 , assay on human Factor Xa (Homo sapiens (Human), UniProt P00742), is 5.96

###

Target: human activated C1r complement component (Homo sapiens (Human), UniProt P00736)
Sequence (P00736 464-705): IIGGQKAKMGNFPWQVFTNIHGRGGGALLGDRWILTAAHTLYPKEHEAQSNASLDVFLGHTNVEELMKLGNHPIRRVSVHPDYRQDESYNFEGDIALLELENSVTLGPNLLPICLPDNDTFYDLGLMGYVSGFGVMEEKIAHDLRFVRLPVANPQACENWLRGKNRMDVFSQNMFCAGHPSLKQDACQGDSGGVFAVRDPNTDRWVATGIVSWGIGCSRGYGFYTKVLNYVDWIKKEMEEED
Sequence (P00736 18-463 partner): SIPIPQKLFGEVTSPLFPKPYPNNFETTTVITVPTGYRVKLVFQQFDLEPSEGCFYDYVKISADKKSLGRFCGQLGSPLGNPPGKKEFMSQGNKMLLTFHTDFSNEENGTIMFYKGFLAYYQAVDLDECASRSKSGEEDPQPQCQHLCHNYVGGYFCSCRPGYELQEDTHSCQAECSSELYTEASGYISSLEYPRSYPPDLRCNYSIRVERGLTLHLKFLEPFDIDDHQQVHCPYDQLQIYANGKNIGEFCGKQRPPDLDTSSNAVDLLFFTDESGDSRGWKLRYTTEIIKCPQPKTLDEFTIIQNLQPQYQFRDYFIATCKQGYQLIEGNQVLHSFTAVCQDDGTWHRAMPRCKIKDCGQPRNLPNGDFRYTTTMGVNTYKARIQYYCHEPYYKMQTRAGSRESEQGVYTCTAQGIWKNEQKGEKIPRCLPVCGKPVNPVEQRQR
Test: Inhibition of human C1r
Conditions: S2314 substrate; read-out: h C1r Ki
List of Ki values.

>  <Smiles string>
N=C(N)c1ccc(CNC(=O)[C@H](CCC2CCNCC2)NC(=O)[C@@H](CCCc2ccncc2)NS(=O)(=O)Cc2ccccc2)cc1

>  <Tgt>
human activated C1r complement component (Homo sapiens (Human), UniProt P00736)

>  <Ki>
> 50 µM

$$$$
>  <Smiles string>
N=C(N)c1ccc(CNC(=O)[C@H](CCC2CCNCC2)NC(=O)[C@@H](CCC2CCN(C(=O)C3CC3)CC2)NS(=O)(=O)Cc2ccccc2)cc1

>  <Tgt>
human activated C1r complement component (Homo sapiens (Human), UniProt P00736)

>  <Ki>
> 50 µM

$$$$
>  <Smiles string>
CNC(=O)N1CCC(CC[C@@H](NS(=O)(=O)Cc2ccccc2)C(=O)N[C@@H](CCC2CCNCC2)C(=O)NCc2ccc(C(=N)N)cc2)CC1

>  <Tgt>
human activated C1r complement component (Homo sapiens (Human), UniProt P00736)

>  <Ki>
> 20 µM

$$$$
>  <Smiles string>
COC(=O)N1CCC(CC[C@@H](NS(=O)(=O)Cc2ccccc2)C(=O)N[C@@H](CCC2CCNCC2)C(=O)NCc2ccc(C(=N)N)cc2)CC1

>  <Tgt>
human activated C1r complement component (Homo sapiens (Human), UniProt P00736)

>  <Ki>
> 20 µM

$$$$
>  <Smiles string>
COC(=O)c1cccc(CS(=O)(=O)N[C@H](CCCc2ccccc2)C(=O)N[C@@H](CCC2CCNCC2)C(=O)NCc2ccc(C(=N)N)cc2)c1

>  <Tgt>
human activated C1r complement component (Homo sapiens (Human), UniProt P00736)

>  <Ki>
> 30 µM

$$$$
>  <Smiles string>
CCCC(=O)N1CCC(CC[C@@H](NS(=O)(=O)Cc2ccccc2)C(=O)N[C@@H](CCC2CCNCC2)C(=O)NCc2ccc(C(=N)N)cc2)CC1

>  <Tgt>
human activated C1r complement component (Homo sapiens (Human), UniProt P00736)

>  <Ki>
> 15 µM

$$$$

Ki of N=C(N)c1ccc(CNC(=O)[C@H](CCC2CCNCC2)NC(=O)[C@@H](CCCc2ccccc2)NS(=O)(=O)Cc2cccc(C(=O)O)c2)cc1 , assay on human activated C1r complement component (Homo sapiens (Human), UniProt P00736), is > 20 µM

###

List of Ki values.
Target: human Factor XIa (Homo sapiens (Human), UniProt P03951)
Sequence (P03951 388-625): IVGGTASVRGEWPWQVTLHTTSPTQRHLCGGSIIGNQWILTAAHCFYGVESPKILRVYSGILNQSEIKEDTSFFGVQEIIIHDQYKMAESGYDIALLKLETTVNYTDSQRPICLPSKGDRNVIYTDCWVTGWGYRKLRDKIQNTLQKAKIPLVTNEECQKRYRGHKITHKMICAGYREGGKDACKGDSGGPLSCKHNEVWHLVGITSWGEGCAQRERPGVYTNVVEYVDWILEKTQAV
Sequence (P03951 19-387 partner): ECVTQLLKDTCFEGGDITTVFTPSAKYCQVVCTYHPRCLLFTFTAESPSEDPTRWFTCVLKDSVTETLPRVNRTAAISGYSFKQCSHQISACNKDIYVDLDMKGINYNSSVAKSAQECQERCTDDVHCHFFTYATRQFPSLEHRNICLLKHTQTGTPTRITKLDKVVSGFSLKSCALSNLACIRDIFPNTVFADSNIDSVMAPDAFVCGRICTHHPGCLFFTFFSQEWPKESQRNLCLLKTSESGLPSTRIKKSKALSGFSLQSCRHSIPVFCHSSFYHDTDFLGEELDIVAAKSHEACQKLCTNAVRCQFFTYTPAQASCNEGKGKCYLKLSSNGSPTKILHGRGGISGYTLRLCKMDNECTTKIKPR
Test: Inhibition of human Factor XIa
Format: biochemical
Details: Pefachrome PCa substrate; read-out: h FXIa Ki
Method: The inhibitory effect for the individual enzymes was determined in analogy to a previously disclosed method (Stürzebecher et al., J. Med. Chem., 40, 3091-3099 (1997)). 200 μl of TBS (0.05 M trishydroxymethylaminomethane; 0.154 M NaCl, 2% ethanol, pH 8.0) […] For zero order kinetics, the reaction was stopped after 20 min by adding 15 μl of acetic acid (80% v/v), and the absorption at 405 nm was determined using a Microplate Reader (Multiscan Ascent™, from Thermo). […]
Please reply with the bare figure in µM and do not write the unit itself.

>  <Molecule>
N=C(N)c1ccc(CNC(=O)[C@H](CCC2CCNCC2)NC(=O)[C@@H](CCCc2cc[n+]([O-])cc2)NS(=O)(=O)Cc2ccccc2)cc1 [drawing 123]

>  <Ki [µM]>
1.4

$$$$
>  <Molecule>
CN(C)C(=O)N1CCC(CC[C@@H](NS(=O)(=O)Cc2ccccc2)C(=O)N[C@@H](CCC2CCNCC2)C(=O)NCc2ccc(C(=N)N)cc2)CC1

>  <Ki [µM]>
1.5

$$$$
>  <Molecule>
CC(C)C(=O)N1CCC(CC[C@@H](NS(=O)(=O)Cc2ccccc2)C(=O)N[C@@H](CCC2CCNCC2)C(=O)NCc2ccc(C(=N)N)cc2)CC1

>  <Ki [µM]>
0.92

$$$$

N=C(N)c1ccc(CNC(=O)[C@H](CCC2CCNCC2)NC(=O)[C@@H](CCCc2cc[n+]([O-])cc2)NS(=O)(=O)Cc2ccccc2)cc1 [drawing 117] yielded Ki of 1.4
